Test system: SK-MEL-5 melanoma
Experiment notes: NCI tumour cell line growth inhibition, 48 h
*1 amine or outer side, *2 acyl side, *3 side chain or, on linkers, in order; H or OH if unused. Where a SMILES comes first, the peptide text is derived from it. Bridges are numbered along the chain shown (N, C = ends). [ ]: non-standard residue; d: D form. The star is where a group is joined. X34 = O=C(C(CCCCNO[*:3])N[*:1])[*:2]; Fmoc = O=C(OCC1c2ccccc2-c2ccccc21)*
Lab note: anything with TGI at or over 20 µM counts as 1; the rest go in 0.

>  <Compound>
COc1cc2c(cc1OC)CC1c3cc(OC)c(OC)cc3CCN1CC2 (stereo not drawn)

>  <Assigned category>
1

$$$$
>  <Compound>
N#CC(C#N)N=Nc1ccc(-c2nc3ccccc3o2)cc1

>  <Assigned category>
0

$$$$
>  <Compound>
OCCNc1nc(Nc2ccc(Cl)c(Cl)c2)nc2ccccc12

>  <Assigned category>
0

$$$$
>  <Compound>
COc1nc2c(c(=O)n1C)N=C(c1ccccc1)[C@H](C(CC(=O)c1ccccc1)c1ccccc1)C(c1ccccc1)N2 (stereo partly drawn)

>  <Assigned category>
1

$$$$
>  <Compound>
CN(C(=O)C1=CCC2(CC1)OCCO2)c1ccccc1I

>  <Assigned category>
1

$$$$
>  <Compound>
C/C=C(\CCOS(=O)(=O)c1ccc(C)cc1)[Si](C)(C)C

>  <Assigned category>
1

$$$$
>  <Compound>
Cc1cccc2c1CCC21OC(=O)c2c1ccc1ccccc21 (stereo not drawn)

>  <Assigned category>
1

$$$$
>  <Compound>
CCN(CC)Cc1ccc(C(=S)Nc2ccc(C)cc2)s1

>  <Assigned category>
1

$$$$
>  <Compound>
CN(C)c1snc2c1c(=O)n(C)c(=O)n2C

>  <Assigned category>
1

$$$$
>  <Compound>
C=C1CC2CC(O)CC(C1)C2 (stereo not drawn)

>  <Assigned category>
1

$$$$
>  <Compound>
CC1(c2ccc(Cl)s2)CC(c2ccc(Cl)s2)=C(C#N)C(=C(C#N)C#N)N1 (stereo not drawn)

>  <Assigned category>
1

$$$$
>  <Compound>
CC(C)(C)OC(=O)NCCNCCNc1ccccc1

>  <Assigned category>
1

$$$$
>  <Compound>
CCOC(=O)c1cc(Br)c(-c2cc(C)no2)[nH]1

>  <Assigned category>
1

$$$$
>  <Compound>
CCN(CC)c1ccc2nc3ccc(N=Nc4c(O)ccc5ccccc45)cc3[n+](-c3ccccc3)c2c1

>  <Assigned category>
1

$$$$
>  <Compound>
O=C(NNC(=S)NCc1ccccc1)c1csc(NC(=S)NC2CCCCC2)n1

>  <Assigned category>
1

$$$$
>  <Compound>
O=C1/C(=C/c2ccc(Cl)cc2)CCC/C1=C\c1ccc(Cl)cc1

>  <Assigned category>
1

$$$$
>  <Compound>
COc1cc2c(cc1O)C1(Cc3ccc4c(c3C1=O)OCO4)N(C)CC2 (stereo not drawn)

>  <Assigned category>
1

$$$$
>  <Compound>
CN(C)CCNC(=O)Cn1cnc2cccc([N+](=O)[O-])c2c1=O

>  <Assigned category>
1

$$$$
>  <Compound>
COc1cccc(Nc2nc(N)nc(N)c2N)c1

>  <Assigned category>
1

$$$$
>  <Compound>
C=C(CO)[C@@H]1CC[C@]2(COC3CCCCO3)CC[C@]3(C)[C@H](CC[C@@H]4[C@@]5(C)C=C(C=O)C(=O)C(C)(C)[C@@H]5CC[C@]43C)[C@@H]12 (stereo partly drawn)

>  <Assigned category>
0

$$$$
>  <Compound>
ON[C@H]1C[C@@H](n2cnc3c(NC4CC4)ncnc32)[C@H](O)[C@@H]1O

>  <Assigned category>
1

$$$$
>  <Compound>
COC(=O)C(C(=O)C(=O)Nc1cccc([N+](=O)[O-])c1)c1nc2ccc([N+](=O)[O-])cc2[nH]c1=O (stereo not drawn)

>  <Assigned category>
1

$$$$
>  <Compound>
CC1=C(C(=O)Nc2cc(Cl)c3[nH]ncc3c2)C(c2ccc(C(F)(F)F)cc2)CC(=O)N1 (stereo not drawn)

>  <Assigned category>
1

$$$$
>  <Compound>
CC(NC(=O)c1ccc(NP(=O)(OCc2ccc([N+](=O)[O-])o2)N(C)CCCCCl)cc1)c1ccc(OCC2CCCCC2)c(C(N)=O)c1 (stereo not drawn)

>  <Assigned category>
0

$$$$
>  <Compound>
O=C1C=CC(=O)c2c(O)c(Br)c(Br)c(O)c21

>  <Assigned category>
1

$$$$
>  <Compound>
CC(C(N)C(=O)NC(C(=O)O)C1OC(n2ccc(=O)[nH]c2=O)C(O)C1O)C(O)c1ccc(O)cn1 (stereo not drawn)

>  <Assigned category>
1

$$$$
>  <Compound>
O=C(N/N=C/c1ccc([N+](=O)[O-])cc1)Nc1ccc(Br)cc1

>  <Assigned category>
1

$$$$
>  <Compound>
O=C1c2ccccc2C(=O)c2c(Nc3cc4c5c(ccc6c7ccc8c9c(cc(Nc%10cccc%11c%10C(=O)c%10ccccc%10C%11=O)c(c3c56)c97)-c3ccccc3C8=O)C(=O)c3ccccc3-4)cccc21

>  <Assigned category>
1

$$$$
>  <Compound>
CCCCCCCCCNC(=O)/C=C/c1ccc(O)c(O)c1

>  <Assigned category>
0

$$$$
>  <Compound>
Cc1cc(N2CCOCC2)nc(N(CCCNc2ccnc3cc(Cl)ccc23)Cc2ccco2)n1

>  <Assigned category>
0

$$$$
>  <Compound>
C=C1C(=O)OC2C3C(=C)[C@@H](OC(C)=O)CC3C(C)=CC(OC(=O)C(C)(OC(C)=O)C(C)OC(C)=O)[C@@H]12 (stereo partly drawn)

>  <Assigned category>
1

$$$$
>  <Compound>
O=C1c2c(ccc3c2CCC3)CC12Cc1ccccc1C2

>  <Assigned category>
1

$$$$
>  <Compound>
NC(=O)CNC(=O)C1CCCN1C(=O)C1CCCCNOC(=O)CCC(NC(=O)OCC2c3ccccc3-c3ccccc32)C(=O)NC(Cc2c[nH]c3ccccc23)C(=O)N1 (stereo not drawn) (Fmoc-EW[X34]PG-NH2; ester 1-3; configuration not given here)

>  <Assigned category>
1

$$$$
>  <Compound>
CCOC(=O)C1=C(C)N(Cc2ccc(Cl)cc2Cl)C2(O)C=CC(=O)C3=C(O)c4ccccc4C(=O)C312 (stereo not drawn)

>  <Assigned category>
1

$$$$
>  <Compound>
O/N=C1/CC2(N3CCOCC3)C3CC/C(=N\O)C2CC1(Cc1ccccc1)C3 (stereo not drawn)

>  <Assigned category>
1

$$$$
>  <Compound>
CC(=O)O[C@@]1(C)[C@@H](C)C(=O)O[C@@H]2CCN3CC=C(COC(=O)[C@]1(C)O)[C@H]23

>  <Assigned category>
1

$$$$
>  <Compound>
COc1cc(/C=C\c2nnc(/C=C\c3ccc(O)c(OC)c3)s2)ccc1O

>  <Assigned category>
0

$$$$
>  <Compound>
CCN(CC)C(=S)SC(C(=O)Nc1nnc(-c2ccccc2)o1)c1ccccc1 (stereo not drawn)

>  <Assigned category>
1

$$$$
